Details: in water, 313.15 K

| smi | solubility (mole fraction) |
| --- | --- |
| CCOC(=O)c1ccc(N)cc1 | 0.000186 |

###

Conditions: in n-octanol, 308.15 K

| smi | solubility (mole fraction) |
| --- | --- |
| CCOC(=O)c1ccc(N)cc1 | 0.0916 |

###

Details: in water, 308.15 K

| smi | solubility (mole fraction) |
| --- | --- |
| CCOC(=O)c1ccc(N)cc1 | 0.000159 |

###

Details: in n-octanol, 313.15 K

| smi | solubility (mole fraction) |
| --- | --- |
| CCOC(=O)c1ccc(N)cc1 | 0.113 |

###

Settings: in water, 303.15 K

| smi | solubility (mole fraction) |
| --- | --- |
| CCOC(=O)c1ccc(N)cc1 | 0.000126 |

###

Conditions: in cyclohexane, 303.15 K
endpoint: solubility (mole fraction)

| smi | endpoint | assay result |
| --- | --- | --- |
| CCOC(=O)c1ccc(N)cc1 | solubility (mole fraction) | 0.00134 |

###

Details: in water, 298.15 K
endpoint: solubility (mole fraction)

| smi | endpoint | assay result |
| --- | --- | --- |
| CCOC(=O)c1ccc(N)cc1 | solubility (mole fraction) | 0.000105 |

###

Conditions: in cyclohexane, 298.15 K
endpoint: solubility (mole fraction)

| smi | assay result |
| --- | --- |
| CCOC(=O)c1ccc(N)cc1 | 0.00107 |

###

Conditions: in isopropyl myristate, 298.15 K
endpoint: solubility (mole fraction)

| smi | assay result |
| --- | --- |
| CCOC(=O)c1ccc(N)cc1 | 0.0637 |

These data points were gathered from BigSolDB 2.1.
